Tested on: MCF7
Assay Info: Growth inhibition of human MCF7 cells after 48 hrs by sulforhodamine B assay
Format: functional
Particulars: MCF7, 48 h
Quantity Measured: GI50 (µM)
Please give a number only; it is taken to be in µM.

{"Molecule Smiles": "COc1cc([C@@H]2c3cc4c(cc3[C@@H](NC(=O)c3ccc(NS(=O)(=O)c5cccc6ccccc56)cc3)[C@H]3COC(=O)[C@H]23)OCO4)cc(OC)c1OC", "Units Of Measure": "µM", "GI50": 2.32}
{"Molecule Smiles": "COc1cc([C@@H]2c3cc4c(cc3[C@@H](NS(=O)(=O)c3cccc5cccnc35)[C@H]3COC(=O)[C@H]23)OCO4)cc(OC)c1OC", "Units Of Measure": "µM", "GI50": 0.12}

From here, focus on the item given below.
Incoming: Value wanted: GI50 (MCF7) of entry "COc1cc([C@@H]2c3cc4c(cc3[C@@H](NS(=O)(=O)c3cccc5ccccc35)[C@H]3COC(=O)[C@H]23)OCO4)cc(OC)c1OC"
Outgoing: 0.09
